- systemUnderTest: Histone deacetylase 3/Nuclear receptor corepressor 2 (HDAC3/NCoR2) (Homo sapiens, UniProt O15379)
- Sequence (O15379 whole entry, the tested form may be a part): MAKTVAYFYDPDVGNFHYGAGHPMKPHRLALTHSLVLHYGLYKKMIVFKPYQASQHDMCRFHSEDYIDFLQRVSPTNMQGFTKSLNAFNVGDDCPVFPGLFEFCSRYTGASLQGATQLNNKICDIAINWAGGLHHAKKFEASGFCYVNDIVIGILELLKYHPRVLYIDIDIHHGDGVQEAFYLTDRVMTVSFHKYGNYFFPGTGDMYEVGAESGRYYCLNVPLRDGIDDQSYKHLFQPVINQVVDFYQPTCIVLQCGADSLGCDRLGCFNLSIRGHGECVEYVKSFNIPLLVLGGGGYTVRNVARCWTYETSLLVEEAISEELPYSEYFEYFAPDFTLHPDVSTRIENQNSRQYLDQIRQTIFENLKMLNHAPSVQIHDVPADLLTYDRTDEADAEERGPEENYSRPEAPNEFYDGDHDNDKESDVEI
- Sequence (Q9Y618 whole entry, further chain, the tested form may be a part): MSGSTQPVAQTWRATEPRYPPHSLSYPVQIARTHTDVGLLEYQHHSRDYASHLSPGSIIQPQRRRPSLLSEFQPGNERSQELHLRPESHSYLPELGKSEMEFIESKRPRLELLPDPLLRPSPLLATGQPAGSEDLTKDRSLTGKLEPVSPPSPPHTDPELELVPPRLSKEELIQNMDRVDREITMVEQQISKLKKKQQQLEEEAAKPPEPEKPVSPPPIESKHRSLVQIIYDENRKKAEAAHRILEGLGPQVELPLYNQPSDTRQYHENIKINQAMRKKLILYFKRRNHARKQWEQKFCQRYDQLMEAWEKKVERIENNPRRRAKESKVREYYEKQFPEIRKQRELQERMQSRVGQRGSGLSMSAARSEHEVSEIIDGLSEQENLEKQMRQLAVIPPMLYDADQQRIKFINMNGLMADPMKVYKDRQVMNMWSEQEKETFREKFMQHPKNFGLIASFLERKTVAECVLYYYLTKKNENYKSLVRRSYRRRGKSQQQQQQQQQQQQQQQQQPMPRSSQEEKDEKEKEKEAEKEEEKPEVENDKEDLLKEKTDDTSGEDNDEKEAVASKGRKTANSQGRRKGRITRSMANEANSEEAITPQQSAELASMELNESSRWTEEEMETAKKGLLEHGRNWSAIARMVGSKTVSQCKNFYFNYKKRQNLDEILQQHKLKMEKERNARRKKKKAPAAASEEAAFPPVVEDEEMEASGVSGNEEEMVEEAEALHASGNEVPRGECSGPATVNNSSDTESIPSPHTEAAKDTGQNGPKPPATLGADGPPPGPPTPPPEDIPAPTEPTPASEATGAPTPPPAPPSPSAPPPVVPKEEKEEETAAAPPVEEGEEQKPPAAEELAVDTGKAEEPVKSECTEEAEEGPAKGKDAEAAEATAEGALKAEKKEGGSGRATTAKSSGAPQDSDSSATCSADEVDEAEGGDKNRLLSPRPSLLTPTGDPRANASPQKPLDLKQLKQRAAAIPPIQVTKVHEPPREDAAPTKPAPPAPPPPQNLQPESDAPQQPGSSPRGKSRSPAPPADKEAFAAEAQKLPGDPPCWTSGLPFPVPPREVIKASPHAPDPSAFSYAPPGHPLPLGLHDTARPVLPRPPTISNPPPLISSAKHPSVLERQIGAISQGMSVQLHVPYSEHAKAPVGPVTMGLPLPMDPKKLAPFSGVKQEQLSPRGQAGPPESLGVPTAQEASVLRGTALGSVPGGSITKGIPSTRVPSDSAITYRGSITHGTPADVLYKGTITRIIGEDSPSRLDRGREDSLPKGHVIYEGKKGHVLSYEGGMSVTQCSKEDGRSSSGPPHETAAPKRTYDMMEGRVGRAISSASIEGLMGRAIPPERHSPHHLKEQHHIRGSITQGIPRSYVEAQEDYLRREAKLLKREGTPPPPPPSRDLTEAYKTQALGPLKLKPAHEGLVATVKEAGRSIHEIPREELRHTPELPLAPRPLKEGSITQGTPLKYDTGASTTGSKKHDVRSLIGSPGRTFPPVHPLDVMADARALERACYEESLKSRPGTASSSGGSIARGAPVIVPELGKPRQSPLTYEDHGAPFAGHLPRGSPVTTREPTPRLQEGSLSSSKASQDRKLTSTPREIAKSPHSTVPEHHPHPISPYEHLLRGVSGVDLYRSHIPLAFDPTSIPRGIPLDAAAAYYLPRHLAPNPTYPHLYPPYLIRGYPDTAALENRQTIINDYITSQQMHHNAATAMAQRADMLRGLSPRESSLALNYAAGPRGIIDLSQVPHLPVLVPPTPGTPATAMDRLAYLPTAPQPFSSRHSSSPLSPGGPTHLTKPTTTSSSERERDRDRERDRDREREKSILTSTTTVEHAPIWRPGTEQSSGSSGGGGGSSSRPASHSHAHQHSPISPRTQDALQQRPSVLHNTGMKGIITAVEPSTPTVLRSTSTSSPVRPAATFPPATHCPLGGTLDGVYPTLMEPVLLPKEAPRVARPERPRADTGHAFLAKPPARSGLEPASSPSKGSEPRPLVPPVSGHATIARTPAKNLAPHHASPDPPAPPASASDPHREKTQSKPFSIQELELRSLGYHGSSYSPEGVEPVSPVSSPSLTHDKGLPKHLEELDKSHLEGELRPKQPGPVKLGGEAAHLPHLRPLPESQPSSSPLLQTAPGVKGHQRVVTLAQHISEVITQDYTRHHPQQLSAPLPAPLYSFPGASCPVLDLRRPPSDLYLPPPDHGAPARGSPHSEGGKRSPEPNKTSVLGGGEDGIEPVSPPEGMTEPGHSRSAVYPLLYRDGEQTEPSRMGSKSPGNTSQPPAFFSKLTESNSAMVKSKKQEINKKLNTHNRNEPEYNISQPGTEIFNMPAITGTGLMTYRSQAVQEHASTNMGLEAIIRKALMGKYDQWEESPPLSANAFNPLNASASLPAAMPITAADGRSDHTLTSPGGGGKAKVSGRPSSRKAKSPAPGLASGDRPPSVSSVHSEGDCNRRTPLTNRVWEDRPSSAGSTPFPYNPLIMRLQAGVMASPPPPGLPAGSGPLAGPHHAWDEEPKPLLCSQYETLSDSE
- experimentalProtocol: biochemical
- Type: cell-based
- Description: Inhibition of His6-tagged HDAC3/SMRT (395 to 489 residues) (unknown origin) co-expressed in baculovirus infected sf9 cells using (FAM)-labeled acetylated peptide substrate after 17 hrs by caliper microfluidic mobility shift assay
# IC50 annotations
The reply should be a number in µM, with the unit left off.

Worked cases, answers included:
CC(=O)Nc1cccc(-c2csc(NC(=O)CCCCCCC(=O)Nc3ccccc3N)n2)c1 | 0.03
Nc1ccccc1NC(=O)CCCCCCC(=O)Nc1ccc(-c2cn(Cc3ccccc3)nn2)cc1 | 1.5
CCOC(=O)Nc1cccc(-c2csc(NC(=O)CCCCCCC(=O)Nc3ccccc3N)n2)c1 | 0.06
Nc1ccccc1NC(=O)CCCCCCC(=O)NOCc1ccccc1 | 0.552
Nc1cccc(-c2csc(NC(=O)CCCCCCC(=O)Nc3ccccc3N)n2)c1 | 0.0603
Nc1ccccc1NC(=O)CCCCCCC(=O)NO | 0.0211

**Query** Consider the compound shown here: CC(C)(C)OC(=O)Nc1cccc(-c2csc(NC(=O)CCCCCCC(=O)Nc3ccccc3N)n2)c1 What is its recorded IC50?
**Result** 0.16

---

- systemUnderTest: Histone deacetylase 3/Nuclear receptor corepressor 2 (HDAC3/NCoR2) (Homo sapiens)
- experimentalProtocol: Inhibition of full length human C-terminal His-tagged HDAC3/N-terminal GST-tagged NCOR2 (395 to 489 residues) co-expressed in baculovirus infected sf9 cells using (FAM)-labeled acetylated peptide substrate after 60 mins by caliper microfluidic mobility shift assay
parameterMeasured: IC50

Worked cases, answers included:
CC(C)[C@@H](C(=O)Nc1ccc(C(=O)Nc2ccc(F)cc2N)cc1)c1ccccc1 | 300 to 1700 nM
C[C@H](C(=O)Nc1ccc(C(=O)Nc2ccc(F)cc2N)cc1)c1ccccc1 | 130 to 230 nM
Nc1cc(F)ccc1NC(=O)c1ccc(NC(=O)C2(c3ccccc3)CC2)cc1 | 200 nM

**Query** Consider the molecule shown here: C[C@@H](C(=O)Nc1ccc(C(=O)Nc2ccc(F)cc2N)cc1)c1ccccc1 What is its recorded IC50?
**Result** 210 to 579 nM

**Query** Consider the molecule shown here: CC[C@H](C(=O)Nc1ccc(C(=O)Nc2ccc(F)cc2N)cc1)c1ccccc1 What is its recorded IC50?
**Result** 110 to 530 nM

**Query** Consider the molecule shown here: Nc1cc(F)ccc1NC(=O)c1ccc(NC(=O)C2(c3ccccc3)CC2)cn1 What is its recorded IC50?
**Result** 1000 nM

**Query** Consider the molecule shown here: CC[C@@H](C(=O)Nc1ccc(C(=O)Nc2ccc(F)cc2N)cc1)c1ccccc1 What is its recorded IC50?
**Result** 60 to 170 nM

**Query** Consider the molecule shown here: CC(C)[C@H](C(=O)Nc1ccc(C(=O)Nc2ccc(F)cc2N)cc1)c1ccccc1 What is its recorded IC50?
**Result** 80 nM

Values compiled from ChEMBL document CHEMBL4270635.
